Target: DCUN1D1 C115 (Q96GG9) (Homo sapiens)
Sequence (Q96GG9 whole entry): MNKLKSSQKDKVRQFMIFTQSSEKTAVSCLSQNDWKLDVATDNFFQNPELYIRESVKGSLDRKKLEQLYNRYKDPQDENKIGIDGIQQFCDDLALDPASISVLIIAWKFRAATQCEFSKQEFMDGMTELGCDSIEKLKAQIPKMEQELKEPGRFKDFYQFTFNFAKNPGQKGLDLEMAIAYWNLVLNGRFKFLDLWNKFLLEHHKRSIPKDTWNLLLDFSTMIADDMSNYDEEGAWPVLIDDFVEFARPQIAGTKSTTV
Assay: Competitive isoTOP-ABPP, cell lysates
Type: binding
Details: 500 μm in-vitro ramos
Exercise: for every item that follows, state its recorded isoTOP-ABPP ratio (reactivity profile), Q96GG9_C115.
No unit in the answer, please; the number alone is enough.

Fill blank: measured isoTOP-ABPP ratio (reactivity profile), Q96GG9_C115 of the compound CC(Br)C(=O)Nc1cc(C(F)(F)F)cc(C(F)(F)F)c1 (stereo not drawn) is ____. 1.7

Moving on to O=C(CCl)N1CCOCC1 0.8

Subsequent entry: O=C(CCl)N1CCC(C(O)(c2ccccc2)c2ccccc2)CC1 1.2

Likewise for O=C(CCl)NC12CC3CC(CC(C3)C1)C2 ? 1.0

Please give the result for O=C(/C=C/c1ccccc1)Nc1cc(C(F)(F)F)cc(C(F)(F)F)c1 too. 0.9

Now try CCN(CC)c1ccc(S(N)(=O)=O)cc1NC(=O)CCl . 0.7

What about this compound? N#C/C(=C\c1cc(C(F)(F)F)cc(C(F)(F)F)c1)C(N)=O 20.0

Further, for C=CC(=O)N(Cc1cccnc1)c1ccc(Oc2ccccc2)c(C(F)(F)F)c1 ? 0.8

Another: CC(C)CCOCCNC(=O)CCl 1.0

* * *

Biological target: cysteines in MDA-MB-231 and Ramos cells (Homo sapiens)
Sequence (P30101 25-505): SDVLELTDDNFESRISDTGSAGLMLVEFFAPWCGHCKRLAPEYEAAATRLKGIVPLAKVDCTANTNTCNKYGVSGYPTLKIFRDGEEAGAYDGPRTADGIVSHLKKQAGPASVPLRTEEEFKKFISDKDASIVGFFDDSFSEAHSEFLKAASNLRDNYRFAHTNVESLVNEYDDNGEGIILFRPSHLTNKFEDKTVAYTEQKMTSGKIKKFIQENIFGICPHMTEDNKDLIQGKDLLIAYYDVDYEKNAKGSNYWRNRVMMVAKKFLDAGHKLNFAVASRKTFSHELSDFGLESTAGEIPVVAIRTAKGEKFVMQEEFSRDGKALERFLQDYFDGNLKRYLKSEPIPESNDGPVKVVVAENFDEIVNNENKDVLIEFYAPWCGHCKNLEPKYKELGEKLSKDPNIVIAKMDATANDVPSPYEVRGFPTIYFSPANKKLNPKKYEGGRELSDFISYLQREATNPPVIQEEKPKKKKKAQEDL
Assay: Competitive isoTOP-ABPP in situ (fragment-treated cells)
Type: cell-based
Settings: 200 μM, insitu, 231
Label yes (1) when isoTOP-ABPP ratio P30101_C406 is at or above 1; otherwise label no (0).

Identify whether the reported isoTOP-ABPP ratio P30101_C406 of the following compound is 1 or greater: C=CC(=O)Nc1cc(F)c(N2CCN(C(=O)OC(C)(C)C)CC2)c(F)c1 no (0)

Also CC1CCc2ccccc2N1C(=O)CCl (centres unmarked) ? yes (1)

Next entry: O=C(CCl)Nc1cccc2ncccc12 yes (1)

Follow-up entry: C=CC(=O)N(Cc1cccnc1)c1cc(C(F)(F)F)cc(C(F)(F)F)c1 no (0)

Try this compound next: O=C(CCl)N1CCN(S(=O)(=O)c2ccccc2F)CC1 yes (1)

O=C(CCl)NC(=O)NC12CC3CC(CC(C3)C1)C2 ? yes (1)

Cool, now CC(C)CCOCCNC(=O)CCl yes (1)
